Tested on: ART24
Assay: Additional EFSA-recommended MIC studies on ART24 lots and cell banks (Table 7)
Assay type: cell-based, Bacillus amyloliquefaciens
Conditions: Bacillus amyloliquefaciens, source CO-33-10A2 (lyophilized lot); read-out: MIC
observable: MIC (µg/mL)
Write the answer as a number in µg/mL, unit excluded.

- molecule: "CC[C@H]1OC(=O)[C@H](C)[C@@H](O[C@H]2C[C@@](C)(OC)[C@@H](O)[C@H](C)O2)[C@H](C)[C@@H](O[C@@H]2O[C@H](C)C[C@H](N(C)C)[C@H]2O)[C@](C)(O)C[C@@H](C)C(=O)[C@H](C)[C@@H](O)[C@]1(C)O [Erythromycin]"
  target-or-system: "ART24"
  readout-unit: "µg/mL"
  MIC: 0.06

Attention now turns to another entry.
Problem: Tell me the measured MIC of CCc1c(Cl)c(O)c(Cl)c(O)c1C(=O)O[C@H]1[C@H](O)[C@H](OC)[C@H](OC/C2=C\C=C\C[C@H](O)/C(C)=C/[C@H](CC)[C@@H](O[C@@H]3OC(C)(C)[C@@H](OC(=O)C(C)C)[C@H](O)[C@@H]3O)/C(C)=C/C(C)=C/C[C@@H]([C@@H](C)O)OC2=O)O[C@@H]1C [Fidaxomicin] , please.
Result: 2
